Reference source for all entries: PubChem BioAssay AID1996

conditions: buffer; pH 7.4; 200.0 µM
measured-property: solubility kinetic

Worked cases, answers included:
molecule | solubility kinetic
Cc1ccc(NS(=O)(=O)c2c(C)noc2C)cc1 | > 39.9 µg/mL
O=C(Nc1cccc2ccccc12)NC(Cc1ccccc1)C(=O)O (centres undefined) | > 50.2 µg/mL
O=C(NCCCN1CCCC1=O)Nc1ccccc1F | > 41.9 µg/mL

Continue with the next molecule.
Recorded solubility kinetic (molecule CCCCC(=O)Nc1cccc(C(C)O)c1 (centres undefined) ): > 33.2 µg/mL

----------
details: buffer; pH 7.4; 200.0 µM
The threshold is inclusive: solubility kinetic of exactly 30 µg/mL counts as 1 (yes); values below receive 0 (no).

molecule | assigned-category
Cc1cc(C)nc(Nc2cccc3ccccc23)n1 | 0 (no)

QUERY: Quick check: does `O=C(CNC(=O)c1cccc(F)c1)N/N=C/c1cccs1` have solubility kinetic greater than or equal to 30 µg/mL?
RESULT: 1 (yes)

QUERY: Quick check: does CCCCC1CN2CCc3c([nH]c4ccccc34)C2(C)C1.Cl (stereo not drawn) have solubility kinetic greater than or equal to 30 µg/mL?
RESULT: 0 (no)

QUERY: Quick check: does CCOC(=O)C1=C(C)NC(=O)NC1c1c(OC)ccc2ccccc12 (stereo not drawn) have solubility kinetic greater than or equal to 30 µg/mL?
RESULT: 0 (no)

QUERY: Quick check: does Cc1cccc(NC(=O)C(c2ccccc2Cl)N2CCOCC2)c1 (stereo not drawn) have solubility kinetic greater than or equal to 30 µg/mL?
RESULT: 1 (yes)

QUERY: Quick check: does `C#CCN(CC=C)C(=O)c1ccc2nc(C3CCCCC3)oc2c1` have solubility kinetic greater than or equal to 30 µg/mL?
RESULT: 1 (yes)

QUERY: Quick check: does `N#Cc1cc(S(=O)(=O)N2CCOCC2)ccc1N1CCOCC1` have solubility kinetic greater than or equal to 30 µg/mL?
RESULT: 1 (yes)

QUERY: Quick check: does CC(Oc1ccc(F)cc1)C(O)CCN(C)C (stereo not drawn) have solubility kinetic greater than or equal to 30 µg/mL?
RESULT: 0 (no)
